assay: Blood levels of lenalidomide in SCID mice after daily intraperitoneal dose; type: in vivo, SCID mouse; conditions: female, CB.17 SCID, mouse, blood, 500 ug; Group 2: 500 mcg ip once a day; at 0.08 hours; read-out: blood level Cmax
MEASUREMENT_KIND: Cmax (ng/mL)

Nc1cccc2c1CN(C1CCC(=O)NC1=O)C2=O (stereo not shown) [lenalidomide] | 2900

* * *

test: Blood levels of lenalidomide in SCID mice after daily intraperitoneal dose; assay type: in vivo, SCID mouse; conditions: female, CB.17 SCID, mouse, blood, 25 mg/kg; Group 2: 500 mcg ip once a day; read-out: blood level at 8 hours
MEASUREMENT_KIND: concentration at 8 h (ng/mL)

Nc1cccc2c1CN(C1CCC(=O)NC1=O)C2=O (stereo not shown) [lenalidomide] | 290
